Molecular target: P-gp (Homo sapiens, UniProt P08183); also: calcein AM 0.25 µM
Construct: The drug-resistant P-gp over-expressing daughter cell line SW620 Ad300 was established by stepwise selection; endogenous in cells; host or cells: SW620 Ad300 (human colon cancer, doxorubicin-selected)
Sequence (P08183 whole entry): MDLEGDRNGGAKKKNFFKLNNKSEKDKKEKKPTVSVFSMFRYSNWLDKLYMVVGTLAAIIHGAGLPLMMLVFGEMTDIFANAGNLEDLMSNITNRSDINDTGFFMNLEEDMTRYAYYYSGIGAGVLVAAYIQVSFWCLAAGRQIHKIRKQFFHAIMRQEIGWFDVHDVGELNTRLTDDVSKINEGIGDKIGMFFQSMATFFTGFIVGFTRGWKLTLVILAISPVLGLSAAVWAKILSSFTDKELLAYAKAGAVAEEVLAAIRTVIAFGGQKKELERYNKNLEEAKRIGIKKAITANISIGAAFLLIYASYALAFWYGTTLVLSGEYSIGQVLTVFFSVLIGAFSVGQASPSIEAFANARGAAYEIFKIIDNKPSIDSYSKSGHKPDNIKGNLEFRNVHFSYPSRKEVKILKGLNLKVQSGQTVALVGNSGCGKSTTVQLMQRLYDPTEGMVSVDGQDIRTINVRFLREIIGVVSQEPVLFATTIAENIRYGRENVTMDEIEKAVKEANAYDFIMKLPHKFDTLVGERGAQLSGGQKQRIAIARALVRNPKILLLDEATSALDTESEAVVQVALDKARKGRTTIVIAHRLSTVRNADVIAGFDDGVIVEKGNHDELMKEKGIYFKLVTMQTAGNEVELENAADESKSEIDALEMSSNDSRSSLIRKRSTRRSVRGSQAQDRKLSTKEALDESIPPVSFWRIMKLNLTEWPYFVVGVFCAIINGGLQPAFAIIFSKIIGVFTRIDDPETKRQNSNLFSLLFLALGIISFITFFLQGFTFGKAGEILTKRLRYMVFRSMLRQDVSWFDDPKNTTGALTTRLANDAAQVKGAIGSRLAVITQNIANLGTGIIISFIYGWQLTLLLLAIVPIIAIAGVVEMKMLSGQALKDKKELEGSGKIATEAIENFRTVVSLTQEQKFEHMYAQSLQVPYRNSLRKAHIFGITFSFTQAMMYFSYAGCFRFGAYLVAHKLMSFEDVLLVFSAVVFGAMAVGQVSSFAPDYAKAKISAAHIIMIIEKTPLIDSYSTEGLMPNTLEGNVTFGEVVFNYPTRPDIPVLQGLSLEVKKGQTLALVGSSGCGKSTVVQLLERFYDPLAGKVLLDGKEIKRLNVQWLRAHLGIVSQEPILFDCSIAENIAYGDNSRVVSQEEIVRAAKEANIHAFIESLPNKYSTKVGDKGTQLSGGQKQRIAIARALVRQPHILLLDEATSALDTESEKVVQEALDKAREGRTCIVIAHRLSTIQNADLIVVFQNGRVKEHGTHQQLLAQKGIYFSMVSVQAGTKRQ
Format: cell-based
Conditions: compound or verapamil 20 μM vs PBS; calcein AM […]; SW620 Ad300
# FAR (fluorescence arbitrary ratio), intracellular calcein fluorescence >= 0.6 fold gives rule met, anything below gives rule not met

Q: Could you tell me if the measured FAR (fluorescence arbitrary ratio), intracellular calcein fluorescence of COC(=O)C1(O)OC(=O)C(c2ccc(O)cc2)=C1c1ccc(O)cc1 (centres unmarked) reaches 0.6 fold or more?
Result: rule met

Q: Could you tell me if the measured FAR (fluorescence arbitrary ratio), intracellular calcein fluorescence of CCOC1(C(=O)OC)NC(=O)C(c2ccc(O)cc2)=C1c1ccc(O)cc1 (centres unmarked) reaches 0.6 fold or more?
Result: rule not met

Q: Could you tell me if the measured FAR (fluorescence arbitrary ratio), intracellular calcein fluorescence of COC(=O)C1(O)NC(=O)C(c2ccc(O)cc2)=C1c1ccc(O)cc1 (centres unmarked) reaches 0.6 fold or more?
Result: rule met

Q: Could you tell me if the measured FAR (fluorescence arbitrary ratio), intracellular calcein fluorescence of COC(=O)c1[nH]cc(-c2ccc(O)cc2)c1-c1ccc(O)cc1 reaches 0.6 fold or more?
Result: rule not met

====

Experiment: MTT cytotoxicity assay, P-gp over-expressing SW620 Ad300 cells
Format: cell-based
Settings: human
Reported Metric: IC50 at 68 h

Q: Value lookup for IC50 at 68 h; key = CCOCN1C(=O)C(c2ccc(O)cc2)=C(c2ccc(O)cc2)C1(O)C(=O)OC (centres unmarked) [Compound 4, ianthellidone D]
Result: > 30 µM

Q: Value lookup for IC50 at 68 h; key = COCN1C(=O)C(c2ccc(O)cc2)=C(c2ccc(O)cc2)C1(O)C(=O)OC (centres unmarked) [Compound 3, ianthellidone C]
Result: > 30 µM

Q: Value lookup for IC50 at 68 h; key = COC(=O)c1c(-c2ccc(O)cc2)c(-c2ccc(O)cc2)cn1CC(=O)c1ccc(OC)cc1 [Compound 11, lamellarin O]
Result: 22.3 µM

Q: Value lookup for IC50 at 68 h; key = COC(=O)c1[nH]cc(-c2ccc(O)cc2)c1-c1ccc(O)cc1 [Compound 12, lamellarin Q]
Result: > 30 µM

Q: Value lookup for IC50 at 68 h; key = COC(=O)C1(O)NC(=O)C(c2ccc(O)cc2)=C1c1ccc(O)cc1 (centres unmarked) [Compound 1, ianthellidone A]
Result: > 30 µM

====

Measured % FTC (inhibition of mitoxantrone efflux normalized to 10 μM FTC), listed per entry for reference.
Molecular target: BCRP (Homo sapiens, UniProt Q9UNQ0)
Sequence (Q9UNQ0 whole entry): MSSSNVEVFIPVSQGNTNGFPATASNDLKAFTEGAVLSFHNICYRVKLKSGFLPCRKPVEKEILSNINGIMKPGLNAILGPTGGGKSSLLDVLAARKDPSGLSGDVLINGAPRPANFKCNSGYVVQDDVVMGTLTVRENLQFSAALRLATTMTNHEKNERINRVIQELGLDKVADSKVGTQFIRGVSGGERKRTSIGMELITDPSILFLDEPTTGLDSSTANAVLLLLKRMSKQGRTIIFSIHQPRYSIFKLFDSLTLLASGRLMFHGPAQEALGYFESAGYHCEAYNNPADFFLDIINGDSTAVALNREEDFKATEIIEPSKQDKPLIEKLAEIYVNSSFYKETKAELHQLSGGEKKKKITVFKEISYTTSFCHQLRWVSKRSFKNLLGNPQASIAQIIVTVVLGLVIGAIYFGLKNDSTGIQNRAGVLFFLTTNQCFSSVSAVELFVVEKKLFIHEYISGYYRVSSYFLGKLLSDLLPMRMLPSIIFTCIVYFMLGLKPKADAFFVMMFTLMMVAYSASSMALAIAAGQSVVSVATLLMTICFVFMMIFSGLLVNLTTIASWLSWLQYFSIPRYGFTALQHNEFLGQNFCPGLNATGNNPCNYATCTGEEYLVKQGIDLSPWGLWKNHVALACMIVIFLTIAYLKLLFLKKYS
Experiment: cell-based
Conditions: compound 20 μM; NCI-H460/MX20
Hi! Could you send only the number? It should be in % FTC, unit omitted.

Solved cases (2 shown):
INSERT INTO assay_data (molecule, unit_string, measurement) VALUES
  ('COC(=O)c1[nH]cc(-c2ccc(O)cc2)c1-c1ccc(O)cc1 [Compound 12, lamellarin Q]', '% FTC', 18.6),
  ('COC(=O)C1(OC)OC(=O)C(c2ccc(O)cc2)=C1c1ccc(O)cc1 (stereo not shown) [Compound 8, ianthellidone H]', '% FTC', 6.06);

In the following, a different molecule is considered.
Q: Value lookup for % FTC (inhibition of mitoxantrone efflux normalized to 10 μM FTC); key = COCN1C(=O)C(c2ccc(O)cc2)=C(c2ccc(O)cc2)C1(O)C(=O)OC (stereo not shown) [Compound 3, ianthellidone C]
Result: 5.60

====

Biological target: BCRP (Homo sapiens, UniProt Q9UNQ0)
Test: cell-based
Settings: compound 20 μM vs PBS; NCI-H460/MX20
Reported Metric: FAR (fluorescence arbitrary ratio), mitoxantrone fluorescence (fold)
Hi! Could you send only the number? It should be in fold, unit omitted.

Solved cases (4 shown):
INSERT INTO measurements (compound, test_target, measurement) VALUES
  ('COC(=O)c1cccn1CC(=O)c1ccc(OC)cc1', 'BCRP (Homo sapiens, UniProt Q9UNQ0)', 1.00),
  ('COC(=O)C1(OC)OC(=O)C(c2ccc(O)cc2)=C1c1ccc(O)cc1 (centres unmarked)', 'BCRP (Homo sapiens, UniProt Q9UNQ0)', 1.13),
  ('CCOC1(C(=O)OC)NC(=O)C(c2ccc(O)cc2)=C1c1ccc(O)cc1 (centres unmarked)', 'BCRP (Homo sapiens, UniProt Q9UNQ0)', 1.07),
  ('COC(=O)C1(O)OC(=O)C(c2ccc(O)cc2)=C1c1ccc(O)cc1 (centres unmarked)', 'BCRP (Homo sapiens, UniProt Q9UNQ0)', 1.09);

In the following, a different compound is considered.
Q: Value lookup for FAR (fluorescence arbitrary ratio), mitoxantrone fluorescence; key = COC(=O)C1(O)NC(=O)C(c2ccc(O)cc2)=C1c1ccc(O)cc1 (centres unmarked)
Result: 0.97

====

Target: P-gp (Homo sapiens); also: calcein AM 0.25 µM
Construct: The drug-resistant P-gp over-expressing daughter cell line SW620 Ad300 was established by stepwise selection; endogenous in cells; host or cells: SW620 Ad300 (human colon cancer, doxorubicin-selected)
Type: cell-based
Conditions: compound or verapamil 20 μM vs PBS; calcein AM […]; SW620 Ad300
Reported Metric: FAR (fluorescence arbitrary ratio), intracellular calcein fluorescence (fold)
Hi! Could you send only the number? It should be in fold, unit omitted.

Q: Value lookup for FAR (fluorescence arbitrary ratio), intracellular calcein fluorescence; key = COCN1C(=O)C(c2ccc(O)cc2)=C(c2ccc(O)cc2)C1(O)C(=O)OC (stereo not shown)
Result: 0.61

Q: Value lookup for FAR (fluorescence arbitrary ratio), intracellular calcein fluorescence; key = COC(=O)C1(O)C(c2ccc(O)cc2)=C(c2ccc(O)cc2)C(=O)N1CC(=O)c1ccc(OC)cc1 (stereo not shown)
Result: 0.61

====

Measured % FTC (inhibition of mitoxantrone efflux normalized to 10 μM FTC), listed per entry for reference.
Molecular target: BCRP (Homo sapiens, UniProt Q9UNQ0)
Experiment: cell-based
Conditions: compound 20 μM; NCI-H460/MX20

INSERT INTO measurements (molecule, measurement) VALUES
  ('COC(=O)c1cc(Br)cn1CC(=O)c1ccc(OC)cc1', '< 1.00 % FTC'),
  ('COC(=O)c1ccc(Br)n1CC(=O)c1ccc(OC)cc1', '< 1.00 % FTC'),
  ('COC(=O)C1(O)NC(=O)C(c2ccc(O)cc2)=C1c1ccc(O)cc1 (stereo not shown)', '<1.00 % FTC');

Q: Value lookup for % FTC (inhibition of mitoxantrone efflux normalized to 10 μM FTC); key = COC(=O)c1cccn1CC(=O)c1ccc(OC)cc1
Result: < 1.00 % FTC

====

Biological target: BCRP (Homo sapiens, UniProt Q9UNQ0)
Experiment: cell-based
Conditions: compound 20 μM vs PBS; NCI-H460/MX20
Reported Metric: FAR (fluorescence arbitrary ratio), mitoxantrone fluorescence (fold)
Hi! Could you send only the number? It should be in fold, unit omitted.

Solved cases (2 shown):
INSERT INTO measurements (structure_smiles_string, measurement) VALUES
  ('COC(=O)c1c(Br)c(Br)c(Br)n1CC(=O)c1ccc(OC)cc1', 1.20),
  ('COC(=O)c1[nH]cc(-c2ccc(O)cc2)c1-c1ccc(O)cc1', 1.41);

In the following, a different compound is considered.
Q: Value lookup for FAR (fluorescence arbitrary ratio), mitoxantrone fluorescence; key = COC(=O)c1cc(Br)cn1CC(=O)c1ccc(OC)cc1
Result: 1.03

====

Biological target: P-gp (Homo sapiens, UniProt P08183); also: calcein AM 0.25 µM
Construct: The drug-resistant P-gp over-expressing daughter cell line SW620 Ad300 was established by stepwise selection; endogenous in cells; host or cells: SW620 Ad300 (human colon cancer, doxorubicin-selected)
Assay type: cell-based
Conditions: compound or verapamil 20 μM vs PBS; calcein AM […]; SW620 Ad300
Measured FAR (fluorescence arbitrary ratio), intracellular calcein fluorescence, listed per entry for reference.
Answer shape: numeric part, then the unit.

INSERT INTO assay_data (molecule, measurement) VALUES
  ('COC(=O)c1c(-c2ccc(O)cc2)c(-c2ccc(O)cc2)cn1CC(O)c1ccc(O)cc1 (centres unmarked)', '0.60 fold'),
  ('CCOC(=O)CN1C(=O)C(c2ccc(O)cc2)=C(c2ccc(O)cc2)C1(O)C(=O)OC (centres unmarked)', '0.59 fold'),
  ('COC(=O)c1c(-c2ccc(O)cc2)c(-c2ccc(O)cc2)cn1CC(=O)c1ccc(O)cc1', '0.61 fold'),
  ('CCOCN1C(=O)C(c2ccc(O)cc2)=C(c2ccc(O)cc2)C1(O)C(=O)OC (centres unmarked)', '0.60 fold');

In the following, a different molecule is considered.
Q: Value lookup for FAR (fluorescence arbitrary ratio), intracellular calcein fluorescence; key = COC(=O)C1(OC)OC(=O)C(c2ccc(O)cc2)=C1c1ccc(O)cc1 (centres unmarked)
Result: 0.60 fold

Reference source: paper PMC4113800
